Test: in vitro
Assay type: cell-based
Conditions: human (BEAS-2B, African green monkey (VeroE6)); across BEAS-2B, VeroE6, and HUVEC cells, MTT
result.type: CC50

Recorded CC50 for COC[C@@H](NC(=O)C1CCC(F)(F)CC1)C(=O)N[C@H](Cc1ccccc1)C(=O)C(=O)NCc1nccs1 [3v] , please?
129 to 159 µM

* * *

Hi there, I'd appreciate the recorded MTRlast for every entry that follows.
Conditions: SD rats, p.o. (10 mg/kg)
Give bare numbers, in h.

// below: answered compounds
C[C@@H](NC(=O)C1CCC(F)(F)CC1)C(=O)N[C@H](Cc1ccccc1)C(=O)C(=O)NCc1nccs1 ... 4.89
C[C@@H](NC(=O)C1CCC(F)(F)C1)C(=O)N[C@H](Cc1ccccc1)C(=O)C(=O)NCc1nccs1 (stereo partly drawn) ... 5.90
C[C@@H](NC(=O)CC1CC(F)(F)C1)C(=O)N[C@H](Cc1ccccc1)C(=O)C(=O)NCc1nccs1 ... 6.57
COC[C@@H](NC(=O)C1CCC(F)(F)CC1)C(=O)N[C@H](Cc1ccccc1)C(=O)C(=O)NCc1nccs1 ... 7.63
COC[C@@H](NC(=O)CC1CC(F)(F)C1)C(=O)N[C@H](Cc1ccccc1)C(=O)C(=O)NCc1nccs1 ... 6.47

Recorded MTRlast for COC[C@@H](NC(=O)C1CCCC(F)(F)C1)C(=O)N[C@H](Cc1ccccc1)C(=O)C(=O)NCc1nccs1 (stereo partly drawn) , please?
6.60

* * *

Hi there, I'd appreciate the recorded CLint scaled for every entry that follows.
Experiment: in vitro
Type: in vitro ADME
Conditions: human, microsomes; HLM 0.5 mg/mL, 1 μM; scaling factor 1254.2

// below: answered molecules
C[C@@H](NC(=O)C1CCCC(F)(F)C1)C(=O)N[C@H](Cc1ccccc1)C(=O)C(=O)NCc1nccs1 (some centres unmarked) ... 68.4 mL/min/kg
CC(C)(C)[C@H](NC(=O)C(F)(F)F)C(=O)N1C[C@H]2[C@@H]([C@H]1C(=O)N[C@H](C#N)C[C@@H]1CCNC1=O)C2(C)C [Nirmatrelvir, reference compound] ... 71.2 mL/min/kg
C[C@@H](NC(=O)C1CCC(F)(F)CC1)C(=O)N[C@H](Cc1ccccc1)C(=O)C(=O)NCc1nccs1 ... 48.8 mL/min/kg
O=C(CC1CC(F)(F)C1)NCC(=O)N[C@H](Cc1ccccc1)C(=O)C(=O)NCc1nccs1 ... 68.1 mL/min/kg

We next turn to a different molecule, shown below.
Recorded CLint scaled for COC[C@@H](NC(=O)C1CCCC(F)(F)C1)C(=O)N[C@H](Cc1ccccc1)C(=O)C(=O)NCc1nccs1 (some centres unmarked) , please?
49.2 mL/min/kg
